Biological target: Non-receptor tyrosine-protein kinase TYK2 (Homo sapiens)
Sequence (P29597 whole entry, the tested form may be a part): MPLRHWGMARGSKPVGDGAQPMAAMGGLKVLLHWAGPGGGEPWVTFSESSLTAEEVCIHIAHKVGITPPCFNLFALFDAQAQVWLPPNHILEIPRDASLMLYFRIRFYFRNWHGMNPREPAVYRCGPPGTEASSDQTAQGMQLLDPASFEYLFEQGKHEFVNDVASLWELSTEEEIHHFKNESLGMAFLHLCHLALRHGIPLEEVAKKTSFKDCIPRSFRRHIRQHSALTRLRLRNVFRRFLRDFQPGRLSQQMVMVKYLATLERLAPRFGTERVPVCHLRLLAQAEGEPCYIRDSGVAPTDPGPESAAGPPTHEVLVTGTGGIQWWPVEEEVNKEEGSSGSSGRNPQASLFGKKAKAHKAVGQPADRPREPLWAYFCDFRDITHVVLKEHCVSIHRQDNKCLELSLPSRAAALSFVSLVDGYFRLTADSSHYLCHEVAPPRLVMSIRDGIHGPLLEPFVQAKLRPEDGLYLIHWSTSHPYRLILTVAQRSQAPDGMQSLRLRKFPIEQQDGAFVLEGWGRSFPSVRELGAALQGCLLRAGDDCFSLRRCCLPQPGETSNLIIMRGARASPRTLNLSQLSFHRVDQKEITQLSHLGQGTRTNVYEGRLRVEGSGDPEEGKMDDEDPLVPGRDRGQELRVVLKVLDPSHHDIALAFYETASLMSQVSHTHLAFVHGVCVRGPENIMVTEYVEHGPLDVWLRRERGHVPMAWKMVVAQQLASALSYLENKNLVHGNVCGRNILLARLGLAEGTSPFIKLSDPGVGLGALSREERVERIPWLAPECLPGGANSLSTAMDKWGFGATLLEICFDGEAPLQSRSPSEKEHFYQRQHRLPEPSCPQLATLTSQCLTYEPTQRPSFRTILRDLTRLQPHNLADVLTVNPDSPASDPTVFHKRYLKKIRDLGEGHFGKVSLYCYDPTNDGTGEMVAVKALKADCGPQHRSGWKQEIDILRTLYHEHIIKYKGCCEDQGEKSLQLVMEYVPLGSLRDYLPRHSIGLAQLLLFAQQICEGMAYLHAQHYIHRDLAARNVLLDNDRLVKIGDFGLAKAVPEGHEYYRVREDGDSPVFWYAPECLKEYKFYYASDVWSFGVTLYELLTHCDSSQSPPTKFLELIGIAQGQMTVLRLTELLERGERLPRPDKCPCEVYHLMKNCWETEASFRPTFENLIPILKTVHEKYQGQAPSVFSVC
Test: Inhibition of TYK2 JH2 domain in human whole blood assessed as inhibition of IFNalpha-induced STAT5 phosphorylation preincubated for 1 hr followed by IFNalpha stimulation and measured after 15 mins by fluorescence assay
Type: tissue-based
Provide the recorded pIC50 for the entries that follow.
One number for each entry, as −log10 of the molar value.

INSERT INTO assay_data (smiles_data, target_or_test_system, meas_value) VALUES
  ('CNC(=O)c1cnc(Nc2ccc(F)cn2)cc1Nc1ccccc1S(C)(=O)=O', 'Non-receptor tyrosine-protein kinase TYK2 (Homo sapiens)', 6.74),
  ('CS(=O)(=O)c1ccccc1Nc1cc(Nc2ccc(F)cn2)ncc1C(N)=O', 'Non-receptor tyrosine-protein kinase TYK2 (Homo sapiens)', 7.48);

Provide the reported pIC50 of each entry below, same order.
1. CCCC(=O)Nc1cc(Nc2ccccc2S(C)(=O)=O)c(C(=O)NC)cn1
2. CNC(=O)c1cnc(Nc2ccccn2)cc1Nc1ccccc1S(C)(=O)=O
3. [2H]C([2H])([2H])NC(=O)c1cnc(Nc2ccc(F)cn2)cc1Nc1ccccc1S(C)(=O)=O
4. CNC(=O)c1cnc(Nc2ccc(C)nn2)cc1Nc1ccccc1S(C)(=O)=O
5. CNC(=O)c1cnc(Nc2ccc(F)cn2)cc1Nc1ccccc1C(N)=O

Solution:
1: 5.60; 2: 6.60; 3: 6.80; 4: 6.20; 5: 6.28

Problem: Requested field: pIC50. Item: CNC(=O)c1cnc(NC(=O)C2CC2)cc1Nc1ccccc1S(C)(=O)=O
Solution: 6.51

Taken from ChEMBL document CHEMBL4414548.
